Would you kindly list normalized growth for each of these compounds?
Experiment: chemical genetic growth profiling, strain panel (AID 1159580);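 note: tested at 20 µM; growth read once vehicle control cultures reached saturation at 30 °C; 1 = growth at the plate median or of vehicle wells; lower values mean less growth of the strain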
Conditions: S. cerevisiae deletion strains, growth OD, locus YOR069W, strain VPS5, hits give low values
Among all 5,500 compounds or so, about 2,000 (36%) were called active. Not shown: some 18% with an inconclusive outcome. The list shows a part of the results.
Form rule: numeric answer, no unit written next to it.

Ask: For the compound CCOc1ccc(NC(C)=O)cc1 , give its reported normalized growth.
Result: 1.07

Ask: For the compound CC(=O)Oc1cccc2c1C(=O)c1c(OC(C)=O)cc(C(=O)O)cc1C2=O , give its reported normalized growth.
Result: 1

Ask: For the compound COc1cc2c(cc1OC)[C@@]13CCN4CC5=CCOC6CC(=O)N2C1[C@H]6[C@H]5C[C@H]43 (stereo partly drawn) , give its reported normalized growth.
Result: 1.02

Ask: For the compound COc1cc(-c2coc3cc(O[C@@H]4O[C@H](CO)[C@@H](O)[C@H](O)[C@H]4O)c(OC)c(O)c3c2=O)cc(O)c1OC , give its reported normalized growth.
Result: 0.986

Ask: For the compound COc1ccc(C(=O)O)c(O)c1OC , give its reported normalized growth.
Result: 1.01

Ask: For the compound C=C(C)[C@@H]1CC[C@]2(CO)CC[C@]3(C)[C@H](CCC4[C@@]5(C)CC[C@H](O)C(C)(C)C5CC[C@]43C)C12 (stereo partly drawn) , give its reported normalized growth.
Result: 0.99

Ask: For the compound CO[C@H]1C[C@H](O[C@H]2[C@H](C)[C@@H](OC3O[C@H](C)C[C@H](N(C)C)[C@H]3OC(C)=O)[C@@H](C)C[C@]3(CO3)C(=O)[C@H](C)[C@@H](OC(C)=O)[C@@H](C)[C@@H](C)OC(=O)[C@@H]2C)O[C@@H](C)[C@@H]1OC(C)=O (stereo partly drawn) , give its reported normalized growth.
Result: 1.01

Ask: For the compound CCOc1ccc(C(=O)c2cc(O)c(OC)c(OC)c2O)cc1 , give its reported normalized growth.
Result: 1

Ask: For the compound COc1ccc(C(=O)c2ccc(O)cc2)c(O)c1O , give its reported normalized growth.
Result: 1.01

Ask: For the compound CC(=O)Oc1cc2c(c(C)c1OC(C)=O)CC1OC13C2(C)CCC1(C)C2CC(C)(C(=O)O)CCC2(C)CCC13C (stereo not drawn) , give its reported normalized growth.
Result: 1.01

Ask: For the compound CCC1C(=O)OCC1Cc1cncn1C (stereo not drawn) , give its reported normalized growth.
Result: 1.01

Ask: For the compound NCC1OC(OC2C(CO)OC(OC3C(O)C(N)CC(N)C3OC3OC(CO)C(O)CC3N)C2O)C(N)C(O)C1OC1OC(CO)C(O)C(O)C1O (stereo not drawn) , give its reported normalized growth.
Result: 1

Ask: For the compound COc1cc(-c2oc3cc(O)ccc3c(=O)c2O)cc(OC)c1OC , give its reported normalized growth.
Result: 1

Ask: For the compound O=C(O)[C@H](O)[C@@](O)(Cc1ccc(O)cc1)C(=O)O , give its reported normalized growth.
Result: 1.01

Ask: For the compound CC1=C(O)C(=O)C=C2C1=CC=C1[C@@]2(C)CC[C@@]2(C)[C@@H]3C[C@](C)(C(=O)O)CC[C@]3(C)CC[C@]12C , give its reported normalized growth.
Result: 0.638

Ask: For the compound CC[C@H]1CN2CCc3cc(OC)c(OC)cc3C2C[C@@H]1CC1NCCc2cc(OC)c(OC)cc21 (stereo partly drawn) , give its reported normalized growth.
Result: 1.01

Ask: For the compound COc1ccc(C2C(=O)c3ccccc3C2=O)cc1 , give its reported normalized growth.
Result: 0.997

Ask: For the compound OCCN1CCN(CCCN2c3ccccc3Sc3ccc(C(F)(F)F)cc32)CC1 , give its reported normalized growth.
Result: 0.986

This collection of values is drawn from PubChem BioAssay AID1159580.
